system: Mitogen-activated protein kinase 14 (Homo sapiens, UniProt Q16539)
Sequence (Q16539 whole entry): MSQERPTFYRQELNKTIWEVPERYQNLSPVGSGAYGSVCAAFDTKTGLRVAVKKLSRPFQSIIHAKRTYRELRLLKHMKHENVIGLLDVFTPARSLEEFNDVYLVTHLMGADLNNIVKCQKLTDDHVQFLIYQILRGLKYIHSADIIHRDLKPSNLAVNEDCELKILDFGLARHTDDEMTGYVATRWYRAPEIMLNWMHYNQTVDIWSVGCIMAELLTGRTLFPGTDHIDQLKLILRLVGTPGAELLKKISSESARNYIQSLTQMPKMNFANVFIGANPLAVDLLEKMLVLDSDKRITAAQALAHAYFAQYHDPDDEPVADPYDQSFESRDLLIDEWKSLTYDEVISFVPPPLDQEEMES
test_method_notes: Kinase Inhibition Assay
protocol_conditions: pH 7.5; 37 °C

{"record_smiles": "Cn1cnc2c(NCc3ccccc3)nc(NCCO)nc21", "IC50": "> 100 µM"}

----------
Catalogue of molecules with associated IC50
system: Mitogen-activated protein kinase 1 (Rattus norvegicus, UniProt P63086)
Sequence (P63086 whole entry): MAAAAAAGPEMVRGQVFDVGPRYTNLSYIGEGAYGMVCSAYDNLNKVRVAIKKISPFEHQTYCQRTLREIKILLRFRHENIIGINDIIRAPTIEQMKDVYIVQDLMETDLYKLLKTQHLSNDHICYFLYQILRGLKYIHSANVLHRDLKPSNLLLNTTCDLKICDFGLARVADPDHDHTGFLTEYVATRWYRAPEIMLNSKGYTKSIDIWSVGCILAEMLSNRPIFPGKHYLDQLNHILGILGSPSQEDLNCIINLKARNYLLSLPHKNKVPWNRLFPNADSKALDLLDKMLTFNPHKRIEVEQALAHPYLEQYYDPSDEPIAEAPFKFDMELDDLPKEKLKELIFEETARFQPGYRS
test_method_notes: Kinase Inhibition Assay
protocol_conditions: pH 7.5; 37 °C

{"molecule": "Cn1cnc2c(NCc3ccccc3)nc(NCCO)nc21", "IC50": "27 µM"}
{"molecule": "C[S+]([O-])c1ccc(-c2nc(-c3ccncc3)c(-c3ccc(F)cc3)[nH]2)cc1 (configuration not stated)", "IC50": "> 1000 µM"}
